Test system: Human primary small intestinal epithelial cells (HSIEC); also: unit not given here
Experimental parameters: 400 μM; 72 h
Reported metric: Cellular Metabolic Activity
Answer field: number only, no words.

Some solved entries appear below for comparison.
{"Smiles": "COc1cc(CNC(=O)CCCC/C=C/C(C)C)ccc1O", "Target": "Human primary small intestinal epithelial cells (HSIEC)", "Cellular Metabolic Activity": 0.016}
{"Smiles": "Cc1ccc(C(C)C)cc1O", "Target": "Human primary small intestinal epithelial cells (HSIEC)", "Cellular Metabolic Activity": 0.139}
{"Smiles": "C=CCc1ccc(O)c(OC)c1", "Target": "Human primary small intestinal epithelial cells (HSIEC)", "Cellular Metabolic Activity": 0.242}

Please turn your attention to the following entry.
# return recorded Cellular Metabolic Activity for input `O=C(/C=C/C=C/c1ccc2c(c1)OCO2)N1CCCCC1`
0.187

====

Tested on: Human primary small intestinal epithelial cells (HSIEC); also: unit not given here
Experimental parameters: 10 μM; 96 h
Respond with class 1 for Cellular Metabolic Activity values of 0.6 and above, class 0 for values below.

Solved entries:
{"Compound": "C=CCc1ccc(O)c(OC)c1 [eugenol]", "Target": "Human primary small intestinal epithelial cells (HSIEC)", "Assigned label": "class 1"}
{"Compound": "Cc1ccc(C(C)C)cc1O [carvacrol]", "Target": "Human primary small intestinal epithelial cells (HSIEC)", "Assigned label": "class 0"}
{"Compound": "COc1cc(CNC(=O)CCCC/C=C/C(C)C)ccc1O [capsaicin]", "Target": "Human primary small intestinal epithelial cells (HSIEC)", "Assigned label": "class 1"}
{"Compound": "COc1cc(/C=C/C(=O)CC(=O)/C=C/c2ccc(O)c(OC)c2)ccc1O [curcumin]", "Target": "Human primary small intestinal epithelial cells (HSIEC)", "Assigned label": "class 0"}
{"Compound": "O=C/C=C/c1ccccc1 [cinnamaldehyde, (2E)-3-phenylprop-2-enal]", "Target": "Human primary small intestinal epithelial cells (HSIEC)", "Assigned label": "class 0"}

Could you verify whether the entry O=C(/C=C/C=C/c1ccc2c(c1)OCO2)N1CCCCC1 [piperine] shows Cellular Metabolic Activity of no less than 0.6?
class 0

Could you verify whether the entry CN(C)CCc1c[nH]c2cccc(OP(=O)(O)O)c12 [psilocybin, reference compound] shows Cellular Metabolic Activity of no less than 0.6?
class 1

====

System: Human primary small intestinal epithelial cells (HSIEC); also: unit not given here
Experimental parameters: 400 μM; 48 h
Reported metric: Cellular Metabolic Activity
Answer field: number only, no words.

{"Smiles": "COc1cc(CNC(=O)CCCC/C=C/C(C)C)ccc1O", "Target": "Human primary small intestinal epithelial cells (HSIEC)", "Value": 0.031}

# return recorded Cellular Metabolic Activity for input `O=C(/C=C/C=C/c1ccc2c(c1)OCO2)N1CCCCC1`
0.191

# return recorded Cellular Metabolic Activity for input `Cc1ccc(C(C)C)cc1O`
0.079

# return recorded Cellular Metabolic Activity for input `C=CCc1ccc(O)c(OC)c1`
0.128

====

Test system: Human primary small intestinal epithelial cells (HSIEC); also: unit not given here
Experimental parameters: 5 μM; 24 h
Reported metric: Cellular Metabolic Activity
Answer field: number only, no words.

Some solved entries appear below for comparison.
{"Molecule": "Cc1ccc(C(C)C)cc1O [carvacrol]", "Cellular Metabolic Activity": 0.072}
{"Molecule": "O=C/C=C/c1ccccc1 [cinnamaldehyde, (2E)-3-phenylprop-2-enal]", "Cellular Metabolic Activity": 0.183}
{"Molecule": "COc1cc(/C=C/C(=O)CC(=O)/C=C/c2ccc(O)c(OC)c2)ccc1O [curcumin]", "Cellular Metabolic Activity": 0.079}
{"Molecule": "COc1cc(CNC(=O)CCCC/C=C/C(C)C)ccc1O [capsaicin]", "Cellular Metabolic Activity": 0.080}

# return recorded Cellular Metabolic Activity for input O=C(/C=C/C=C/c1ccc2c(c1)OCO2)N1CCCCC1 [piperine]
0.077

# return recorded Cellular Metabolic Activity for input CN(C)CCc1c[nH]c2cccc(OP(=O)(O)O)c12 [psilocybin, reference compound]
0.098

====

Let's look at some compounds and their measured Cellular Metabolic Activity.
Test system: Human primary small intestinal epithelial cells (HSIEC); also: unit not given here
Experimental parameters: 200 μM; time 0
Answer field: number only, no words.

Some solved entries appear below for comparison.
{"Compound": "Cc1ccc(C(C)C)cc1O [carvacrol]", "Target": "Human primary small intestinal epithelial cells (HSIEC)", "Cellular Metabolic Activity": 0.027}
{"Compound": "COc1cc(CNC(=O)CCCC/C=C/C(C)C)ccc1O [capsaicin]", "Target": "Human primary small intestinal epithelial cells (HSIEC)", "Cellular Metabolic Activity": 0.040}
{"Compound": "C=CCc1ccc(O)c(OC)c1 [eugenol]", "Target": "Human primary small intestinal epithelial cells (HSIEC)", "Cellular Metabolic Activity": 0.041}
{"Compound": "O=C/C=C/c1ccccc1 [cinnamaldehyde, (2E)-3-phenylprop-2-enal]", "Target": "Human primary small intestinal epithelial cells (HSIEC)", "Cellular Metabolic Activity": 0.031}

# return recorded Cellular Metabolic Activity for input O=C(/C=C/C=C/c1ccc2c(c1)OCO2)N1CCCCC1 [piperine]
0.027

====

Test system: Human primary small intestinal epithelial cells (HSIEC); also: unit not given here
Experimental parameters: 100 μM; 24 h
Respond with Satisfied for Cellular Metabolic Activity values of 0.07 and above, Not satisfied for values below.

{"Smiles": "C=CCc1ccc(O)c(OC)c1", "Assigned label": "Satisfied"}
{"Smiles": "O=C/C=C/c1ccccc1", "Assigned label": "Satisfied"}

Could you verify whether the entry `COc1cc(CNC(=O)CCCC/C=C/C(C)C)ccc1O` shows Cellular Metabolic Activity of no less than 0.07?
Not satisfied
